target: full-length beta-Catenin (Uniprot ID P35222) (Homo sapiens (Human)) (UniProt P35222); assay: fluorescence polarization competition, 5FAM-TCF4 10-53 probe on full-length beta-catenin
Sequence (P35222 2-781 limits assumed): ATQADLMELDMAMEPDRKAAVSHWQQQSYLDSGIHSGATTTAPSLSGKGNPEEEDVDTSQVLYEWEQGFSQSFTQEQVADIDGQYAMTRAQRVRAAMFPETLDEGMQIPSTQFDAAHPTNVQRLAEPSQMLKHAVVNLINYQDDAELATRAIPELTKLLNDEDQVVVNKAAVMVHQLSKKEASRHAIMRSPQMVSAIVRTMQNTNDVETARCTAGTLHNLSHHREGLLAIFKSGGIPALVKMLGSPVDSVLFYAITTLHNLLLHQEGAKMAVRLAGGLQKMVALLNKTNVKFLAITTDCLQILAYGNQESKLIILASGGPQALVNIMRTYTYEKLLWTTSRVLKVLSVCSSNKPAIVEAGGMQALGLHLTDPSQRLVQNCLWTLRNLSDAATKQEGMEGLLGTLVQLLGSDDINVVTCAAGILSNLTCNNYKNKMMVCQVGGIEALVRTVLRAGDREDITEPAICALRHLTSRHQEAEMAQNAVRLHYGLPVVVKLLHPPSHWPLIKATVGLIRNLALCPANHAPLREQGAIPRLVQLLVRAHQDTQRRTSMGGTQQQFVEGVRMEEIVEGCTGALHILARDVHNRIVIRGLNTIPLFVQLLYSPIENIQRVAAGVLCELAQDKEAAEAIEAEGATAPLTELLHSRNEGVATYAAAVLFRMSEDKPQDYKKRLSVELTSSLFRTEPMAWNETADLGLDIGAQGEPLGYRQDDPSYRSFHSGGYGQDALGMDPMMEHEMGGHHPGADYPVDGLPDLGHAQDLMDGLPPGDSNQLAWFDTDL
Starred links: 1 amine or outer side, 2 acyl side, 3 side chain; linkers in the order of their positions; H or OH if unused. Positions of bridges follow the written chain, without caps; N, C: chain ends. Non-standard residues stand in square brackets, D forms with d. Primed or numbered codes have the meaning given here. PyrS2″ = (S)-3-amino-1-((pent-4-en-1-yloxy)carbonyl)pyrrolidine-3-carboxylic acid (stapling residue), C=CCCCOC(=O)N1CC[C@@](N[*:1])(C(=O)[*:2])C1; B5(24) = 2-amino-2-(pent-4-en-1-yl)hept-6-enoic acid, 2,2-bis(4-pentenyl)glycine (stitching residue), C=CCCCC(CCCC=C)(N[*:1])C(=O)[*:2]; B5(4) = 2,2-bis(4-pentenyl)glycine = 2-amino-2-(pent-4-en-1-yl)hept-6-enoic acid (stitching residue), C=CCCCC(CCCC=C)(N[*:1])C(=O)[*:2]; Ala(morpholin-4-yl) = N[C@@H](CN1CCOCC1)C(=O)O; Phe(2-Cl) = N[C@@H](Cc1ccccc1Cl)C(=O)O; 1Nal = N[C@@H](Cc1cccc2ccccc12)C(=O)O; Bta = N[C@@H](Cc1csc2ccccc12)C(=O)O; Lys(iPr) = CC(C)NCCCC[C@H](N)C(=O)O; αAllylPro = C=CC[C@@]1(C(=O)O)CCCN1; tBuAla = CC(C)(C)C[C@H](N)C(=O)O; Cha = N[C@@H](CC1CCCCC1)C(=O)O
// reported pEC50 for each item listed
Quick note: pEC50 values are minus log10 of concentrations in mol/L.

As a guide, the following entries are already answered.
Ac-[αAllylPro]D[Cha][B5(4)]DDLLFT[PyrS2″][Phe(2-Cl)][Bta]S-NH2 (staple 1-4, 4-11) [I-1152] | 7.19
Ac-[αAllylPro]D[tBuAla][B5(24)]DD[Lys(iPr)]AFN[PyrS2″][Phe(2-Cl)][Bta]Q-NH2 (staple 1-4, 4-11) [I-1131] | 8.15
Ac-[αAllylPro]D[1Nal][B5(4)]DDAAFL[PyrS2″][Phe(2-Cl)][Bta]S-NH2 (staple 1-4, 4-11) [I-1116] | 7.40
Ac-[αAllylPro]D[tBuAla][B5(4)]DDAAFN[PyrS2″][Phe(2-Cl)][Bta][Ala(morpholin-4-yl)]-NH2 (staple 1-4, 4-11; also: earlier eluting staple isomer) [I-1133] | 8.30

pEC50 measured on Ac-[αAllylPro]D[Cha][B5(4)]DDALFS[PyrS2″][Phe(2-Cl)][Bta]Q-NH2 (staple 1-4, 4-11) [I-1148] = 7.30
